- experiment_summary: pKa of the lipid by TNS fluorescence
- Type: physicochemical
- experimental_conditions: pKa
Classify by measured pKa: TRUE if it is equal to or exceeds 6, FALSE if it is smaller.

>>> class("CCCCC/C=C\\C/C=C\\CCCCCCCCOCC(CN1CCC(N2CCCCC2)CC1)OCCOCCO[C@H]1CC[C@@]2(C)C(=CCC3C2CC[C@@]2(C)C3CC[C@@H]2[C@H](C)CCCC(C)C)C1 (some centres unmarked) [E0004]")
"TRUE"
>>> class("CCCCC/C=C\\C/C=C\\CCCCCCCCOCC(CN1Cc2ccccc2C1)OCCOCCO[C@H]1CC[C@@]2(C)C(=CCC3C2CC[C@@]2(C)C3CC[C@@H]2[C@H](C)CCCC(C)C)C1 (some centres unmarked) [E0029]")
"FALSE"
>>> class("CCCCC/C=C\\C/C=C\\CCCCCCCCOCC(CN1CCCCC1)OC(=O)COCC(=O)O[C@H]1CC[C@@]2(C)C(=CCC3C2CC[C@@]2(C)C3CC[C@@H]2[C@H](C)CCCC(C)C)C1 (some centres unmarked) [E0047]")
"FALSE"
>>> class("CCCCC/C=C\\C/C=C\\CCCCCCCCOCC(CN1CCCCC1)OCCCCO[C@H]1CC[C@@]2(C)C(=CCC3C2CC[C@@]2(C)C3CC[C@@H]2[C@H](C)CCCC(C)C)C1 (some centres unmarked) [E0027]")
"FALSE"

* * *

- experiment_summary: Particle size and PDI by dynamic light scattering (Malvern Zetasizer)
- Format: physicochemical
- experimental_conditions: lipid/no neutral lipid/CHOL/AVANTI 880150P 50/0/46/4, N/P 3.43
property_measured: PDI

>>> endpoint_value("CCCCC/C=C\\C/C=C\\CCCCCCCCOCC(CN1CCC(N(C)C)C1)OCCOCCO[C@H]1CC[C@@]2(C)C(=CC[C@H]3[C@@H]4CC[C@H]([C@H](C)CCCC(C)C)[C@@]4(C)CC[C@@H]32)C1 (stereo partly shown)")
0.06
>>> endpoint_value("CCCCC/C=C\\C/C=C\\CCCCCCCCOCC(CN1Cc2ccccc2C1)OCCOCCO[C@H]1CC[C@@]2(C)C(=CCC3C2CC[C@@]2(C)C3CC[C@@H]2[C@H](C)CCCC(C)C)C1 (stereo partly shown)")
0.08
>>> endpoint_value("CCCCC/C=C\\C/C=C\\CCCCCCCCOCC(CN1C(C)CCC1C)OCCOCCO[C@H]1CC[C@@]2(C)C(=CCC3C2CC[C@@]2(C)C3CC[C@@H]2[C@H](C)CCCC(C)C)C1 (stereo partly shown)")
0.116
>>> endpoint_value("CCCCC/C=C\\C/C=C\\CCCCCCCCOCC(CN1CCCC2CCCCC21)OCCOCCO[C@H]1CC[C@@]2(C)C(=CCC3C2CC[C@@]2(C)C3CC[C@@H]2[C@H](C)CCCC(C)C)C1 (stereo partly shown)")
0.201
>>> endpoint_value("CCCCC/C=C\\C/C=C\\CCCCCCCCOC[C@@H](CN1CCCCC1)OCCOCCO[C@H]1CC[C@@]2(C)C(=CCC3C2CC[C@@]2(C)C3CC[C@@H]2[C@H](C)CCCC(C)C)C1 (stereo partly shown)")
0.16
>>> endpoint_value("CCCCC/C=C\\C/C=C\\CCCCCCCCOCC(CN1CCC2(CC1)OCCCO2)OCCOCCO[C@H]1CC[C@@]2(C)C(=CCC3C2CC[C@@]2(C)C3CC[C@@H]2[C@H](C)CCCC(C)C)C1 (stereo partly shown)")
0.148
>>> endpoint_value("CCCCC/C=C\\C/C=C\\CCCCCCCCOCC(CN1CCC(CCC)C1)OCCOCCO[C@H]1CC[C@@]2(C)C(=CCC3C2CC[C@@]2(C)C3CC[C@@H]2[C@H](C)CCCC(C)C)C1 (stereo partly shown)")
0.12

* * *

- Test system: Factor VII
- experiment_summary: Factor VII activity assay, in vivo liver delivery of FVII siRNA LNP
- Design: species or system mouse
- experimental_conditions: dose 3 mg/kg siRNA i.v., ~48 h; lipid/no neutral lipid/CHOL/AVANTI 880150P 50/0/46/4, N/P 3.43
property_measured: FVII inhib % (%)

>>> endpoint_value("CCCCC/C=C\\C/C=C\\CCCCCCCCOCC(CN1CCCCC1)OCCOCCO[C@H]1CC[C@@]2(C)C(=CCC3C2CC[C@@]2(C)C3CC[C@@H]2[C@H](C)CCCC(C)C)C1 (some centres unmarked)")
97.4
>>> endpoint_value("CCCCC/C=C\\C/C=C\\CCCCCCCCOCC(CN1CCCCC1)OCCOCCNC(=O)O[C@H]1CC[C@@]2(C)C(=CCC3C2CC[C@@]2(C)C3CC[C@@H]2[C@H](C)CCCC(C)C)C1 (some centres unmarked)")
98.9
>>> endpoint_value("CCCCC/C=C\\C/C=C\\CCCCCCCCOCC(CN1CCc2ccccc2C1)OCCOCCO[C@H]1CC[C@@]2(C)C(=CC[C@H]3[C@@H]4CC[C@H]([C@H](C)CCCC(C)C)[C@@]4(C)CC[C@@H]32)C1 (some centres unmarked)")
20.1
>>> endpoint_value("CCCCC/C=C\\C/C=C\\CCCCCCCCOCC(CN1CCCCC1)OCCCCO[C@H]1CC[C@@]2(C)C(=CCC3C2CC[C@@]2(C)C3CC[C@@H]2[C@H](C)CCCC(C)C)C1 (some centres unmarked)")
30.3
>>> endpoint_value("CCCCC/C=C\\C/C=C\\CCCCCCCCOCC(CN1CCCCCC1)OCCOCCO[C@H]1CC[C@@]2(C)C(=CC[C@H]3[C@@H]4CC[C@H]([C@H](C)CCCC(C)C)[C@@]4(C)CC[C@@H]32)C1 (some centres unmarked)")
96.5

* * *

- experiment_summary: Particle size and PDI by dynamic light scattering (Malvern Zetasizer)
- Format: physicochemical
- experimental_conditions: lipid/no neutral lipid/CHOL/AVANTI 880150P 50/0/46/4, N/P 3.43
Threshold 70 nm. Final size (nm) below it: rule met. Final size (nm) at it or above: rule not met.

>>> class("CCCCC/C=C\\C/C=C\\CCCCCCCCOCC(CN1CCC(CCC)C1)OCCOCCO[C@H]1CC[C@@]2(C)C(=CCC3C2CC[C@@]2(C)C3CC[C@@H]2[C@H](C)CCCC(C)C)C1 (some centres unmarked) [E0025]")
"rule not met"
>>> class("CCCCC/C=C\\C/C=C\\CCCCCCCCOCC(CN1CCCCC1)OCCCCO[C@H]1CC[C@@]2(C)C(=CCC3C2CC[C@@]2(C)C3CC[C@@H]2[C@H](C)CCCC(C)C)C1 (some centres unmarked) [E0027]")
"rule met"
>>> class("CCCCC/C=C\\C/C=C\\CCCCCCCCOCC(CN1CCCCC1)OCCOCCO[C@H]1CC[C@@]2(C)C(=CCC3C2CC[C@@]2(C)C3CC[C@@H]2[C@H](C)CCCC(C)C)C1 (some centres unmarked) [E0014]")
"rule not met"
>>> class("CCCCC/C=C\\C/C=C\\CCCCCCCCOCC(CN1CCCC1)OCCOCCO[C@H]1CC[C@@]2(C)C(=CC[C@H]3[C@@H]4CC[C@H]([C@H](C)CCCC(C)C)[C@@]4(C)CC[C@@H]32)C1 (some centres unmarked) [E0015]")
"rule not met"
>>> class("CCCCC/C=C\\C/C=C\\CCCCCCCCOCC(CN1CCC(CCOC)CC1)OCCOCCO[C@H]1CC[C@@]2(C)C(=CCC3C2CC[C@@]2(C)C3CC[C@@H]2[C@H](C)CCCC(C)C)C1 (some centres unmarked) [E0033]")
"rule not met"

* * *

- experiment_summary: pKa of the lipid by TNS fluorescence
- Assay type: physicochemical
- experimental_conditions: pKa
In this section we review reported pKa values for a set of compounds.
property_measured: pKa

>>> endpoint_value("CCCCC/C=C\\C/C=C\\CCCCCCCCOCC(CN1CCCCC1)OCCCOC(=O)CCC(=O)O[C@H]1CC[C@@]2(C)C(=CC[C@H]3[C@@H]4CC[C@H]([C@H](C)CCCC(C)C)[C@@]4(C)CC[C@@H]32)C1 (stereo partly drawn)")
5.95
>>> endpoint_value("CCCCC/C=C\\C/C=C\\CCCCCCCCOCC(CN1CCCC1C)OCCOCCO[C@H]1CC[C@@]2(C)C(=CC[C@H]3[C@@H]4CC[C@H]([C@H](C)CCCC(C)C)[C@@]4(C)CC[C@@H]32)C1 (stereo partly drawn)")
6.79
>>> endpoint_value("CCCCC/C=C\\C/C=C\\CCCCCCCCOCC(CN1CCC(O)C1)OCCOCCO[C@H]1CC[C@@]2(C)C(=CC[C@H]3[C@@H]4CC[C@H]([C@H](C)CCCC(C)C)[C@@]4(C)CC[C@@H]32)C1 (stereo partly drawn)")
4.73
>>> endpoint_value("CCCCC/C=C\\C/C=C\\CCCCCCCCOCC(CN1CCCCCC1)OCCOCCO[C@H]1CC[C@@]2(C)C(=CC[C@H]3[C@@H]4CC[C@H]([C@H](C)CCCC(C)C)[C@@]4(C)CC[C@@H]32)C1 (stereo partly drawn)")
6.46
>>> endpoint_value("CCCCC/C=C\\C/C=C\\CCCCCCCCOCC(CN1CC=CC1)OCCOCCO[C@H]1CC[C@@]2(C)C(=CCC3C2CC[C@@]2(C)C3CC[C@@H]2[C@H](C)CCCC(C)C)C1 (stereo partly drawn)")
6.8
>>> endpoint_value("CCCCC/C=C\\C/C=C\\CCCCCCCCOCC(CN1CCCCC1)OCCOCCOCCOCCO[C@H]1CC[C@@]2(C)C(=CC[C@H]3[C@@H]4CC[C@H]([C@H](C)CCCC(C)C)[C@@]4(C)CC[C@@H]32)C1 (stereo partly drawn)")
6.79
>>> endpoint_value("CCCCC/C=C\\C/C=C\\CCCCCCCCOCC(CN1CCCC1C)OCCOCCOCCO[C@H]1CC[C@@]2(C)C(=CC[C@H]3[C@@H]4CC[C@H]([C@H](C)CCCC(C)C)[C@@]4(C)CC[C@@H]32)C1 (stereo partly drawn)")
6.81
>>> endpoint_value("CCCCC/C=C\\C/C=C\\CCCCCCCCOCC(CN1CCOCC1)OCCOCCO[C@H]1CC[C@@]2(C)C(=CC[C@H]3[C@@H]4CC[C@H]([C@H](C)CCCC(C)C)[C@@]4(C)CC[C@@H]32)C1 (stereo partly drawn)")
5.32
>>> endpoint_value("CCCCCCCC/C=C\\CCCCCCCCOCC(CN1CCCC1C)OCCOCCO[C@H]1CC[C@@]2(C)C(=CC[C@H]3[C@@H]4CC[C@H]([C@H](C)CCCC(C)C)[C@@]4(C)CC[C@@H]32)C1 (stereo partly drawn)")
6.8
